FYI, the data here is from paper PMC12736255.

Tested on: HCT-15
Assay: NCI-60 single-dose screen
Format: cell-based
Conditions: Homo sapiens; HCT-15, 10^–5 M; read-out: GI (%)
Excerpt: In the next step, all synthesized compounds were electronically submitted and accepted for testing to the National Cancer Institute (NCI) platform, for the single dose (10^−5 M) screening against a panel of 60 human tumor cell lines, representing leukemia, melanoma, and cancers of the lung, colon, central nervous system, ovary, kidney, prostate, and breast. The results are summarized in Table 2, with the best values highlighted in red (Figures S1–S14).
TEST_READOUT: inhibition at 10 µM (%)
I only need the number, in %, no unit after it.

O=C1C(Nc2ccc(I)cc2)=CC(c2cc(C(F)(F)F)cc(C(F)(F)F)c2)N1c1ccc(I)cc1 (centres unmarked) [3f] | 17
O=C1C(Nc2ccc(I)cc2)=CC(c2ccc(F)cc2)N1c1ccc(I)cc1 (centres unmarked) [3b] | 9
COc1cc(OC)c(C2C=C(Nc3ccc(I)cc3)C(=O)N2c2ccc(I)cc2)cc1OC (centres unmarked) [3k] | 0

Q: Check the records and state inhibition at 10 µM for O=C1C(Nc2ccc(I)cc2)=CC(c2ccc(Br)cc2)N1c1ccc(I)cc1 (centres unmarked) [3d]
A: 13

Q: Provide inhibition at 10 µM value for the following compound: O=C1C(Nc2ccc(I)cc2)=CC(c2ccc(O)c(O)c2)N1c1ccc(I)cc1 (centres unmarked) [3h]
A: 84

Q: Indicate its recorded inhibition at 10 µM; the compound in question is COc1ccc(C2C=C(Nc3ccc(I)cc3)C(=O)N2c2ccc(I)cc2)cc1OC (centres unmarked) [3j]
A: 0

Q: Please report the measured inhibition at 10 µM for O=C1C(Nc2ccc(I)cc2)=CC(c2ccc(C(F)(F)F)cc2)N1c1ccc(I)cc1 (centres unmarked) [3e]
A: 12

Q: Determine its reported inhibition at 10 µM: O=C1C(Nc2ccc(I)cc2)=CC(c2ccc(O)cc2)N1c1ccc(I)cc1 (centres unmarked) [3g]
A: 84

Q: Given COc1ccccc1C1C=C(Nc2ccc(I)cc2)C(=O)N1c1ccc(I)cc1 (centres unmarked) [3i] , respond with its inhibition at 10 µM.
A: 13

Q: Give the measured inhibition at 10 µM for O=C1C(Nc2ccc(I)cc2)=CC(c2ccco2)N1c1ccc(I)cc1 (centres unmarked) [3m]
A: 16

Q: Using the record for O=C1C(Nc2ccc(I)cc2)=CC(c2ccc(Cl)cc2)N1c1ccc(I)cc1 (centres unmarked) [3c] , state its measured inhibition at 10 µM.
A: 13

Q: Name the recorded inhibition at 10 µM of the item O=C1C(Nc2ccc(I)cc2)=CC(c2ccccc2)N1c1ccc(I)cc1 (centres unmarked) [3a] in your answer.
A: 19

Q: Please indicate inhibition at 10 µM recorded for N#Cc1ccc(C2C=C(Nc3ccc(I)cc3)C(=O)N2c2ccc(I)cc2)cc1 (centres unmarked) [3l]
A: 21

Q: Check the records and state inhibition at 10 µM for O=C1C(Nc2ccc(I)cc2)=CC(c2ccc3c(c2)OCO3)N1c1ccc(I)cc1 (centres unmarked) [3n]
A: 9

###

System: SNB-75
Test: NCI-60 single-dose screen
Format: cell-based
Conditions: Homo sapiens; SNB-75, 10^–5 M; read-out: GI (%)
Classes by inhibition at 10 µM: bottom bin: < 10%; middle bin: ≥ 10% and < 90%; top bin: ≥ 90%

Q: Each compound maps to one class by inhibition at 10 µM. Which class for COc1ccc(C2C=C(Nc3ccc(I)cc3)C(=O)N2c2ccc(I)cc2)cc1OC (centres unmarked) [3j] ?
A: bottom bin
